Assay Target: T1, CD228 on A375 and A2058 cells (human, UniProt P08582 20-709)
T1 construct: whole, on cells; GPI-anchored cell surface protein; also called CD228 on A375 cells; CD228 on A2058 cells
T1 sequence (looked up): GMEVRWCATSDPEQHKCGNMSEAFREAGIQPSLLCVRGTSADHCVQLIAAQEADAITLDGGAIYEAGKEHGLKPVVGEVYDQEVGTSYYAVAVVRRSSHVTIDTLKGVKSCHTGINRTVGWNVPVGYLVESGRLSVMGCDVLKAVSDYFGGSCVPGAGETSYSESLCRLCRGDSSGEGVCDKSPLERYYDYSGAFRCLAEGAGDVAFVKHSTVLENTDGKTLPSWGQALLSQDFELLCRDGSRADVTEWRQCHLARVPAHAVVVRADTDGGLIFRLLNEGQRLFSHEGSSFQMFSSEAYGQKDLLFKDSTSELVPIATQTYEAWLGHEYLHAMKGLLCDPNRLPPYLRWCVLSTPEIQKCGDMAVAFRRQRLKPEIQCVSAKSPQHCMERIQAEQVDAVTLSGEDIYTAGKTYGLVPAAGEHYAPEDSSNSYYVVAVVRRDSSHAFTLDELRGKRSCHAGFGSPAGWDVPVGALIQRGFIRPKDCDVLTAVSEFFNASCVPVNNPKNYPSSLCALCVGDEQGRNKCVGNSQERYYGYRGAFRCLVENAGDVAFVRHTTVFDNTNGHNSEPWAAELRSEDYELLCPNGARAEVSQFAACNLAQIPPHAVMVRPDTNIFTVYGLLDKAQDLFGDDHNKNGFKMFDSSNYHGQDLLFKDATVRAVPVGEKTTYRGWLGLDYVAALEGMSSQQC
Measurement Protocol: flow cytometry saturation binding on A375 cells (~18K receptors), neutral pH
Assay Readout: EC50 (nM)
Just the number please, in nM, no unit attached.

>>> reported("hL49_27D_Gln (antibody, V domains shown, hL49 variant with the light chain CDR-L1 histidine 27D changed to glutamine) VH: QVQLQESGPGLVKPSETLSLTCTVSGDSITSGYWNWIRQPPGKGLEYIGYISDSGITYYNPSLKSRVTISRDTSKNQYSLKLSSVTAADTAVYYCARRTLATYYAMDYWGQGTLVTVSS VL: DFVMTQSPLSLPVTLGQPASISCRASQSLVQSDGNTYLHWYQQRPGQSPRLLIYRVSNRFSGVPDRFSGSGSGTDFTLKISRVEAEDVGVYYCSQSTHVPPTFGQGTKLEIK")
0.9

Next item in the queue.
## Task Look up EC50: hL49_3X_Ala (antibody, V domains shown, hL49 triple mutant: all three light chain CDR histidines (two in CDR-L1, one in CDR-L3) changed to alanine) VH: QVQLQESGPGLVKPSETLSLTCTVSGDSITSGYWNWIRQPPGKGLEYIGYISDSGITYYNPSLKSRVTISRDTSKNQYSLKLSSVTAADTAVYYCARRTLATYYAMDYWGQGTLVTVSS VL: DFVMTQSPLSLPVTLGQPASISCRASQSLVASDGNTYLAWYQQRPGQSPRLLIYRVSNRFSGVPDRFSGSGSGTDFTLKISRVEAEDVGVYYCSQSTAVPPTFGQGTKLEIK
## Result 1.4
